# refractive index per record follows
Experiment: refractive index (Na D-line) (dimensionless); xn = mol fraction of the nth substance listed
Settings: 303.15 K; 101 kPa; Liquid; Standard Abbe refractometry; x1 = 0.15
In your answer, state the number alone without any accompanying words.

As a guide, the following entries are already answered.
compound: C=C[Si](C)(C)O[Si](C)(C)C=C [1,3-diethenyl-1,1,3,3-tetramethyldisiloxane] + COc1ccccc1
refractive index: 1.48543
--
compound: C=C[Si](C)(C)O[Si](C)(C)C=C [1,3-diethenyl-1,1,3,3-tetramethyldisiloxane] + Fc1ccccc1
refractive index: 1.44482
--
compound: C=C[Si](C)(C)O[Si](C)(C)C=C [1,3-diethenyl-1,1,3,3-tetramethyldisiloxane] + O=[N+]([O-])c1ccccc1
refractive index: 1.51211

// next item, refractive index requested
Please give the measured refractive index for this compound: C=C[Si](C)(C)O[Si](C)(C)C=C [1,3-diethenyl-1,1,3,3-tetramethyldisiloxane] + Clc1ccccc1
1.48923

---

# refractive index per record follows
Assay: refractive index (Na D-line) (dimensionless); xn = mol fraction of the nth substance listed
Settings: 303.15 K; 101 kPa; Liquid; Standard Abbe refractometry; x1 = 0.6
In your answer, state the number alone without any accompanying words.

As a guide, the following entries are already answered.
compound: C=C[Si](C)(C)O[Si](C)(C)C=C [1,3-diethenyl-1,1,3,3-tetramethyldisiloxane] + COc1ccccc1
obs.value: 1.43393

compound: C=C[Si](C)(C)O[Si](C)(C)C=C [1,3-diethenyl-1,1,3,3-tetramethyldisiloxane] + CCc1ccccc1
obs.value: 1.42979

compound: C=C[Si](C)(C)O[Si](C)(C)C=C [1,3-diethenyl-1,1,3,3-tetramethyldisiloxane] + Fc1ccccc1
obs.value: 1.41891

Please give the measured refractive index for this compound: C=C[Si](C)(C)O[Si](C)(C)C=C [1,3-diethenyl-1,1,3,3-tetramethyldisiloxane] + Clc1ccccc1
1.43446

---

Details: 283.15 K; 101 kPa; Liquid; Vibrating tube method
Lab note: compare mass density with 1000 kg/m3, writing y if less and n if equal or more.

Worked examples follow.
substance.smiles: CCc1ccccc1
assigned.label: y

substance.smiles: Clc1ccccc1
assigned.label: n

substance.smiles: C=C[Si](C)(C)O[Si](C)(C)C=C
assigned.label: y

substance.smiles: Fc1ccccc1
assigned.label: n

Next compound, please.
Confirm or reject: mass density of O=[N+]([O-])c1ccccc1 lies strictly below 1000 kg/m3
n

---

Assay: refractive index (Na D-line) (dimensionless); xn = mol fraction of the nth substance listed
Conditions: 298.15 K; 101 kPa; Liquid; Standard Abbe refractometry; x1 = 0.25
attribute.measured: refractive index
In your answer, state the number alone without any accompanying words.

molecule: C=C[Si](C)(C)O[Si](C)(C)C=C [1,3-diethenyl-1,1,3,3-tetramethyldisiloxane] + Fc1ccccc1
attribute.measured: refractive index
obs.value: 1.44002

molecule: C=C[Si](C)(C)O[Si](C)(C)C=C [1,3-diethenyl-1,1,3,3-tetramethyldisiloxane] + O=[N+]([O-])c1ccccc1
attribute.measured: refractive index
obs.value: 1.49511

Please give the measured refractive index for this molecule: C=C[Si](C)(C)O[Si](C)(C)C=C [1,3-diethenyl-1,1,3,3-tetramethyldisiloxane] + Clc1ccccc1
1.47637

// same read-out, input: C=C[Si](C)(C)O[Si](C)(C)C=C [1,3-diethenyl-1,1,3,3-tetramethyldisiloxane] + CCc1ccccc1
1.46206
